# Test system: Cystine
# Test protocol: Inhibition of L-cystine crystallization assessed as increase in apparent aqueous solubility after 72 hrs by fluorescence assay relative to CDME
Observable: fold change (FC)

N[C@@H](CSSC[C@H](N)C(=O)NCCO)C(=O)NCCO    3.2

a = N[C@@H](CSSC[C@H](N)C(=O)N1CCCCC1)C(=O)N1CCCCC1
b = N[C@@H](CSSC[C@H](N)C(=O)N1CCOCC1)C(=O)N1CCOCC1
c = N[C@@H](CSSC[C@H](N)C(=O)NC1CC1)C(=O)NC1CC1
d = CN1CCN(C(=O)[C@@H](N)CSSC[C@H](N)C(=O)N2CCN(C)CC2)CC1
**Q:** Rank ascending by fold change (FC). Kindly provide the labels arranged according to the requested ordering.
**A:** c, a, b, d
(c: 1.8, a: 4, b: 7.4, d: 24.5)
